Biological target: FXa (Homo sapiens, UniProt P00742)
Sequence (P00742 235-488 limits assumed): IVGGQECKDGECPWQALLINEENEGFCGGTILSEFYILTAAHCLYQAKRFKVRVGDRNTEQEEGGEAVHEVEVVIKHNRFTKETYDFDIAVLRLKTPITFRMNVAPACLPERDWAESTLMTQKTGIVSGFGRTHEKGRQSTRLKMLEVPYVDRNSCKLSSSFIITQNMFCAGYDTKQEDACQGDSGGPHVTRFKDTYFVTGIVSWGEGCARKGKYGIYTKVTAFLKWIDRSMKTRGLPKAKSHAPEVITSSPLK
Sequence (P00742 41-179 partner limits assumed): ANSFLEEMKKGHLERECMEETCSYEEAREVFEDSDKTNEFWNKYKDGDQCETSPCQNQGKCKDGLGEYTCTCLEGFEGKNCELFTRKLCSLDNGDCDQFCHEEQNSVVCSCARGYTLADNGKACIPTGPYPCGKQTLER
Assay: Determination of selectivity: FXa inhibition, chromogenic substrate S2765 assay
Assay type: biochemical
Details: fold selectivity for FXIIa over FXa

{"COMPOUND": "Cn1nnc2cc(CNC(=O)[C@@H]3C[C@@H](Cc4cccc5c4CCO5)CN3C(=O)[C@H]3C[C@@H](c4ccccc4)CN3)ccc21 [Example M05371]", "FXa (human)/FXIIa alpha (human)": "∘∘"}
{"COMPOUND": "COc1ccc(C[C@@H]2C[C@@H](C(=O)NCc3cc4cnccc4o3)N(C(=O)[C@H](N)CCC(=O)N3CCCC3)C2)cc1 [Example M05404]", "FXa (human)/FXIIa alpha (human)": "∘∘∘"}
{"COMPOUND": "COc1ccc(C[C@@H]2C[C@@H](C(=O)NCc3ccc4c(c3)nnn4C)N(C(=O)[C@H](N)CCC(=O)N3CC[C@H](F)C3)C2)cc1 [Example M05400]", "FXa (human)/FXIIa alpha (human)": "∘∘∘"}
